Assay Overview: Terminal half life in Sprague-Dawley rat at 1 mg/kg, iv
Format: ADME, organism-based
Protocol Conditions: Sprague-Dawley, in vivo, read-out: beta t1/2 (converted)
Listing of entries alongside the reported half-life.

Compound | half-life
CC[C@@H](C)Oc1cc2c(cc1OC)CC(=O)N(c1ccc(N(C)C[C@H]3CC[C@H](N(C)C)CC3)cc1)[C@H]2c1ccc(Cl)cc1 | 19.1 h
COc1cc2c(cc1OC(C)C)[C@H](c1ccc(Cl)cc1)N(c1ccc(N(C)C[C@H]3CC[C@H](N4CCNC(=O)C4)CC3)cc1)C(=O)C2 | 9.3 h

---

Listing of entries alongside the reported pIC50.
Target Or System: Voltage-gated inwardly rectifying potassium channel KCNH2 (Homo sapiens)
Sequence (Q12809 whole entry): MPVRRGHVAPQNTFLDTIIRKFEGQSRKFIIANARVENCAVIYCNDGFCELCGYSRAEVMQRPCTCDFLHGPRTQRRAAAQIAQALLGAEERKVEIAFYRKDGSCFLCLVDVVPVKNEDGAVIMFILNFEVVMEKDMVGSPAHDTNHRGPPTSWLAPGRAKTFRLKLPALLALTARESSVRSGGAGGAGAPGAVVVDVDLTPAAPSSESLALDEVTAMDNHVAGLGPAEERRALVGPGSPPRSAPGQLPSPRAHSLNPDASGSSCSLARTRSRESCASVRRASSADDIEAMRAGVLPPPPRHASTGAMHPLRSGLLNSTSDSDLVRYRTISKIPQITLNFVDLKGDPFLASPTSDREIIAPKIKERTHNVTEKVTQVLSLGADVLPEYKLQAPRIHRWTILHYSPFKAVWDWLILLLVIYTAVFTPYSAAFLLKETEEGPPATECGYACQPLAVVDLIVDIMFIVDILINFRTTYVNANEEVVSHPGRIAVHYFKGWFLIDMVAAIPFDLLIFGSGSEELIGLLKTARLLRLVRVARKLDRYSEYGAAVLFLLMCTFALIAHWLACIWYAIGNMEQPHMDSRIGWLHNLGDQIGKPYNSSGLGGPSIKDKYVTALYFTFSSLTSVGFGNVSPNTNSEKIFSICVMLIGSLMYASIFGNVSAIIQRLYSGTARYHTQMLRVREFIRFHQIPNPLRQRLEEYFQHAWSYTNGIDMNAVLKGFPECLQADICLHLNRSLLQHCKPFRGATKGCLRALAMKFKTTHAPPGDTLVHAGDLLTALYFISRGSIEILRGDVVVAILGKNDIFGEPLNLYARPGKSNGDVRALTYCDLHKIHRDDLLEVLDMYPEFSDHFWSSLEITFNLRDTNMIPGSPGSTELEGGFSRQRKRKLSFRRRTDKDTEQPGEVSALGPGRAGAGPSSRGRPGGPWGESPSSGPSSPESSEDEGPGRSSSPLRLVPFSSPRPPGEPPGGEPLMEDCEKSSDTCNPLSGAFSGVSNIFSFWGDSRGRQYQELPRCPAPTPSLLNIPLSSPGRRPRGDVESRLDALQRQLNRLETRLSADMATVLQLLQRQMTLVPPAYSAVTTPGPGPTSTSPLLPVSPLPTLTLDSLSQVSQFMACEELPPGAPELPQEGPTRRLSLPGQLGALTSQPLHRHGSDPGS
Assay Overview: Inhibition of human ERG by radioligand binding assay
pIC50: −log10 of the molar value.

Compound | Censoring Qualifier | pIC50
COc1cc2c(cc1OC(C)C)[C@H](c1ccc(Cl)cc1)N(c1ccc(N(C)C[C@H]3CC[C@H](N4CCNC(=O)C4)CC3)cc1)C(=O)C2 | = | 4.80
CC[C@@H](C)Oc1cc2c(cc1OC)CC(=O)N(c1ccc(N(C)C[C@H]3CC[C@H](N(C)C)CC3)cc1)[C@H]2c1ccc(Cl)cc1 | = | 5.89
CCC(=O)N[C@H]1CC[C@H](CN(C)c2ccc(N3C(=O)Cc4cc(OC)c(O[C@H](C)CC)cc4[C@@H]3c3ccc(Cl)cc3)cc2)CC1 | < | 4.52

---

Assay Overview: Intrinsic clearance in rat liver microsomes
Type: ADME
Protocol Conditions: read-out: CLH

Compound | Value Unit | microsomal CLint
CC[C@@H](C)Oc1cc2c(cc1OC)CC(=O)N(c1ccc(N(C)C[C@H]3CC[C@H](N(C)C)CC3)cc1)[C@H]2c1ccc(Cl)cc1 | µL/min/mg | 5.6

---

Assay Overview: Terminal half life in OF1 mouse at 1 mg/kg, iv
Assay type: ADME, organism-based
Protocol Conditions: in vivo, read-out: beta t1/2 (converted)

Compound | half-life
COc1cc2c(cc1OC(C)C)[C@H](c1ccc(Cl)cc1)N(c1ccc(N(C)C[C@H]3CC[C@H](N4CCN(C)C(=O)C4)CC3)cc1)C(=O)C2 [CGM-097] | 384 min

---

Assay Overview: Inhibition of rat MDM2 by TR-FRET assay

Compound | Ki, nM
COc1cc2c(cc1OC(C)C)[C@H](c1ccc(Cl)cc1)N(c1ccc(N(C)C[C@H]3CC[C@H](N4CCN(C)C(=O)C4)CC3)cc1)C(=O)C2 | 47.4
COc1ccc(C2=N[C@@H](c3ccc(Cl)cc3)[C@@H](c3ccc(Cl)cc3)N2C(=O)N2CCNC(=O)C2)c(OC(C)C)c1 | 12.6

---

Listing of entries alongside the reported log10 microsomal CLint.
Assay Overview: Intrinsic clearance in human liver microsomes
Assay type: ADME
Protocol Conditions: read-out: CLH
Metric: log10 microsomal CLint (log10 of the value in µL/min/mg)

Compound | Metric | Quantitative Result
COc1cc2c(cc1OC(C)C)[C@H](c1ccc(Cl)cc1)N(c1ccc(N(C)C[C@H]3CC[C@H](N(C)C)CC3)cc1)C(=O)C2 | log10 microsomal CLint | 0.66
COc1cc2c(cc1OC(C)C)[C@H](c1ccc(Cl)cc1)N(c1ccc(N(C)C[C@H]3CC[C@H](N4CCN(C)C(=O)C4)CC3)cc1)C(=O)C2 [CGM-097] | log10 microsomal CLint | 1.72
COc1cc2c(cc1OC(C)C)[C@H](c1ccc(Cl)cc1)N(c1ccc(N(C)C[C@H]3CC[C@H](N4CC(=O)N(C)C4)CC3)nc1)C(=O)C2 | log10 microsomal CLint | 2.20
COc1cc2c(cc1OC(C)C)[C@H](c1ccc(Cl)cc1)N(c1ccc(N(C)C[C@H]3CC[C@H](N4CCN(C)C(=O)C4)CC3)cn1)C(=O)C2 | log10 microsomal CLint | 2.19
COc1cc2c(cc1OC(C)C)[C@H](c1ccc(Cl)cc1)N(c1ccc(N(C)C[C@H]3CC[C@H](N4CCN(C)C(=O)C4)CC3)nc1)C(=O)C2 | log10 microsomal CLint | 2.18
COc1cc2c(cc1OC(C)C)[C@H](c1ccc(Cl)cc1)N(c1cnc(N(C)C[C@H]3CC[C@H](N4CCN(C)C(=O)C4)CC3)cn1)C(=O)C2 | log10 microsomal CLint | 2.34
COc1cc2c(cc1OC(C)C)[C@H](c1ccc(Cl)cc1)N(c1ccc(N(C)C[C@H]3CC[C@H](N4CCNC(=O)C4)CC3)cc1)C(=O)C2 | log10 microsomal CLint | 0.53
COc1cc2c(cc1OC(C)C)[C@H](c1ccc(Cl)cc1)N(c1ccc(N(C)C[C@H]3CC[C@H](N(C)C)CC3)nc1)C(=O)C2 | log10 microsomal CLint | 1.89

Data provenance: ChEMBL document CHEMBL3600357
